# assay.notes: small-molecule microarray binders of probe aNog, primary screen, biochemical, biotinylated probe, 635/667 nm fluorescence (AID 1115);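 also: probe is biotinylated aNog protein used at 0.15 µg/mL for 1 h at 4 C; z-score combines 667 nm fluorescence of each spot with its signal to noise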
# conditions.used: higher = more signal
measurement.kind: composite z-score

>>> assay_value("CCOC(=O)[C@H](CC(C)C)NC(=O)CCC1CC(OC(=O)NCc2cccc3ccccc23)CC2(CCCC(COC(=O)NCc3ccncc3)O2)O1 (stereo partly drawn)")
-0.036
>>> assay_value("COC(=O)CC=C[C@@H](C)[C@@H](C=NO[C@@H](C)c1cn([C@H](CO)Cc2ccccc2)nn1)NS(=O)(=O)c1ccc(C)cc1")
0.143
>>> assay_value("CCO[C@H](c1cc(OC)cc([N+](=O)[O-])c1OC)[C@H](C)C=CCC(=O)OC")
-0.0278
>>> assay_value("COCOc1ccc(Br)cc1C(=O)[C@@H]1O[C@H]1c1cccc(OC)c1")
-0.0428
>>> assay_value("CC(=O)Nc1ccc([C@@H]2N[C@H](C(=O)O)CC[C@H]2C)cc1")
-0.213
>>> assay_value("CCN1C(=O)[C@H]2[C@H]3[C@H](O)[C@H](O)CC(=NO[C@@H](C)c4cn([C@H](CO)Cc5ccccc5)nn4)[C@@H]3CC[C@H]2C1=O")
0.111
>>> assay_value("C[C@@H]1CC[C@H]2C(=O)O[C@@H](COc3ccc(C(C)(C)C)cc3)CN2[C@@H]1c1ccc(Br)cc1")
0.105
>>> assay_value("C#CCCCON=C1C[C@@H](O)[C@@H](O)[C@@H]2[C@@H]3C(=O)N(Cc4ccccc4)C(=O)[C@@H]3CC[C@@H]12")
-0.133

----------
# assay.notes: small-molecule microarray binders of probe aEGFR, primary screen, biochemical, biotinylated probe, 635/667 nm fluorescence (AID 1097);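 also: probe is a biotinylated anti-EGFR antibody binding compounds printed on slides; score combines fluorescence near 667 nm and signal to noise of each spot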
# conditions.used: higher = more signal
Measured composite z-score, listed per entry for reference.
measurement.kind: composite z-score

>>> assay_value("COC(=O)CC=C[C@@H](C)[C@@H]1C=C[C@H](O)[C@@H](CO)O1")
-0.338
>>> assay_value("C=C(C)C(=O)OCC1CN2[C@@H](CC[C@@H](C)[C@@H]2c2ccc(Br)cc2)C(=O)O1 (stereo partly specified)")
-0.128
>>> assay_value("CC(C)CON=C1C[C@@H](O)[C@@H](O)[C@@H]2[C@@H]3C(=O)N(c4cccc(Oc5ccccc5)c4)C(=O)[C@@H]3CC[C@@H]12")
-0.109
>>> assay_value("CO[C@H]1COC(=O)CCC[C@@H](C)[C@H](OC)COC(=O)[C@@H](C)NC(=O)CC=C[C@@H]1C")
0.0115
>>> assay_value("COC(=O)CC=C[C@@H](C)[C@@H](C=NO[C@@H](C)c1cn([C@H](CO)Cc2ccccc2)nn1)NS(=O)(=O)c1ccc(C)cc1")
-0.0398
>>> assay_value("CCCNC(=O)OC[C@H]1O[C@H](CCON=C(C)C)C=C[C@@H]1Oc1ccc(OC)cc1")
-0.0581
>>> assay_value("C[C@@H]1C=CCC(=O)OC[C@H]2O[C@@H](C=C[C@@H]2O)[C@H](C)C=CCC(=O)OC1")
-0.0455
>>> assay_value("C#CCCCON=C1C[C@@H](O)[C@@H](O)[C@@H]2[C@@H]3C(=O)N(C(C)(C)C)C(=O)[C@@H]3CC[C@H]12")
0.113
>>> assay_value("CO[C@H]1COC(=O)CC=C[C@H](C)COC(=O)[C@@H](C)NC(=O)CC=C[C@@H]1C")
-0.0606
>>> assay_value("CCCNC(=O)OC[C@H]1O[C@H](c2ccccc2)C=C[C@@H]1Oc1ccc(OC)cc1")
-0.146
>>> assay_value("O=C1C[C@@H](O)[C@@H](O)[C@@H]2[C@@H]3C(=O)N(Cc4ccccc4)C(=O)[C@@H]3CC[C@@H]12")
-0.0432
>>> assay_value("COC(=O)CC=C[C@@H](C)[C@H](OCc1cccc(-c2ccccc2)c1)C1CCCCC1")
-0.27
>>> assay_value("Cc1ccc(S(=O)(=O)OC[C@H]2CN3[C@H](c4ccc(Br)cc4)[C@@H](C)CC[C@H]3C(=O)O2)cc1")
-0.136
>>> assay_value("CCOC(=O)[C@H](Cc1ccccc1)NC(=O)CCC1CC(OC(=O)NCc2cccc3ccccc23)CC2(CCCC(COC(=O)NCc3ccccc3)O2)O1 (stereo partly specified)")
-0.142
>>> assay_value("CCOC(=O)[C@H](CC(C)C)NC(=O)CCC1CC(OC(=O)NCc2cccc3ccccc23)CC2(CCCC(COC(=O)NCc3cccc(C(F)(F)F)c3)O2)O1 (stereo partly specified)")
-0.137
>>> assay_value("CC(C)=CCCC(C)=CCON=C1C[C@@H](O)[C@@H](O)[C@@H]2[C@@H]3C(=O)N(Cc4ccccc4)C(=O)[C@@H]3CC[C@H]12")
-0.034
